Target: DGKalpha (hDGKalpha(1-735)-N-His) (Homo sapiens (Human))
Sequence (P23743 whole entry): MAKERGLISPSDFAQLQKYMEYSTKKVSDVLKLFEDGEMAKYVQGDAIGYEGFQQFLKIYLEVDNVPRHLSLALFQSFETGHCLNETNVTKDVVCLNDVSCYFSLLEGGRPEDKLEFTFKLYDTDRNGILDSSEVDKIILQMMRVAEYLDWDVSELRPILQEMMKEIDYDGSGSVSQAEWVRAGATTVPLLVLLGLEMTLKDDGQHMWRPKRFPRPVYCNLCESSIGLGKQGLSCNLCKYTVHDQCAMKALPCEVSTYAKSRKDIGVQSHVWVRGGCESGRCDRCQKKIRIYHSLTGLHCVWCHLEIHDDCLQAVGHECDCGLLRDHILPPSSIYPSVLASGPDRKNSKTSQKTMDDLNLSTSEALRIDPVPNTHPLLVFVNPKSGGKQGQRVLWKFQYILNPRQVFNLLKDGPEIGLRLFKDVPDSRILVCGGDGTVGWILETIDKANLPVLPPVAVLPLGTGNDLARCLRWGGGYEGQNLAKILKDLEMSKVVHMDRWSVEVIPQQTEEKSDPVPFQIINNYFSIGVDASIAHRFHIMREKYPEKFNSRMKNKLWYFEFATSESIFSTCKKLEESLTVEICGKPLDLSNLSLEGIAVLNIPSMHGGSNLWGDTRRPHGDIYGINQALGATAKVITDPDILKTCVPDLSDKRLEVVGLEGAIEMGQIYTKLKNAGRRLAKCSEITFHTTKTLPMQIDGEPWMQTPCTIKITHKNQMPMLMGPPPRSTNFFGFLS
Experiment: In vitro DGK inhibition assay, ADP-Glo (in house), DGKalpha
Type: biochemical
Conditions: DLG liposomes, 25 μM ATP, 4 nM enzyme, 1 hour reaction
As shown below, each of these compounds has a reported IC50 value.
Enter your answer as a number in µM; do not include the unit.

Consider the worked cases shown below.
Exam item: Quick one: IC50 for N[C@H]1CS(=O)(=O)c2cc(F)c(-c3cncc(N4CCOCC4)c3)cc2N(Cc2ccc(-c3noc(C(F)(F)F)n3)cc2)C1=O [Example 21] ?
Marked response: 31

Exam item: Subsequent entry: CC(C)(C#N)c1cncc(-c2cc3c(cc2F)S(=O)(=O)C[C@H](N)C(=O)N3Cc2ccc(-c3noc(C(F)(F)F)n3)cc2)c1 [Example 23]
Marked response: 17.2

Then this compound:
Exam item: Quick one: IC50 for COC(=O)N1CC2CC(c3cnnc(-c4cc5c(cc4F)S(=O)(=O)C[C@H](N)C(=O)N5Cc4ccc(Cl)cc4)n3)(C2)C1 [Example 18] ?
Marked response: 4.59
